System: Serratia marcescens ATCC 13880
Assay type: cell-based
Conditions used: ATCC 13880
Numbered stars: 1 amine (or outer) side, 2 acyl side, 3 side chain; on linkers, the order of the positions; unused ones are H or OH. Square brackets hold non-standard residues; d marks the D form. Peptide text beside a SMILES is read from it. X1 = CC(C)[C@H](C)N(CC(=O)[*:2])[*:1]; Nspe = C[C@H](NCC(=O)O)c1ccccc1; Nphe = O=C(O)CNCc1ccccc1; Nlys = NCCCCNCC(=O)O
Recorded endpoint: MIC Serratia marcescens ATCC 13880

Identify the measured MIC Serratia marcescens ATCC 13880 of C[C@@H](c1ccccc1)N(CC(N)=O)C(=O)CN(Cc1ccccc1)C(=O)CN(CCCCN)C(=O)CN(C(=O)CN(Cc1ccccc1)C(=O)CN(CCCCN)C(=O)CN(C(=O)CN(Cc1ccccc1)C(=O)CN(CCCCN)C(=O)CN(C(=O)CN(Cc1ccccc1)C(=O)CNCCCCN)[C@@H](C)c1ccccc1)[C@@H](C)c1ccccc1)[C@@H](C)c1ccccc1 [1-Npm2,5,8,11, H-(Nlys-Npm-Nspe)4-NH2] (H-[Nlys][Nphe][Nspe][Nlys][Nphe][Nspe][Nlys][Nphe][Nspe][Nlys][Nphe][Nspe]-NH2) for Serratia marcescens ATCC 13880. >72.6 µM

Report MIC Serratia marcescens ATCC 13880 for NCCCCNCC(=O)N(CC(=O)N(CC(=O)N(CCCCN)CC(=O)N(CC(=O)N(CC(=O)N(CCCCN)CC(=O)N(CC(=O)N(CC(=O)N(CCCCN)CC(=O)N(CC(=O)N(CC(N)=O)Cc1ccccc1)Cc1ccccc1)Cc1ccccc1)Cc1ccccc1)Cc1ccccc1)Cc1ccccc1)Cc1ccccc1)Cc1ccccc1 [1achiral, H-(Nlys-Npm-Npm)4-NH2] (H-[Nlys][Nphe][Nphe][Nlys][Nphe][Nphe][Nlys][Nphe][Nphe][Nlys][Nphe][Nphe]-NH2) tested on Serratia marcescens ATCC 13880. >75 µM

Quick check: MIC Serratia marcescens ATCC 13880 on Serratia marcescens ATCC 13880, item C[C@@H](c1ccccc1)N(CC(N)=O)C(=O)CN(C(=O)CN(CCCCN)C(=O)[C@@H]1CCCN1C(=O)CN(C(=O)CN(CCCCN)C(=O)CN(C(=O)CN(C(=O)CN(CCCCN)C(=O)CN(C(=O)CN(C(=O)CNCCCCN)[C@@H](C)c1ccccc1)[C@@H](C)c1ccccc1)[C@@H](C)c1ccccc1)[C@@H](C)c1ccccc1)[C@@H](C)c1ccccc1)[C@@H](C)c1ccccc1 [1-Pro9] (H-[Nlys][Nspe][Nspe][Nlys][Nspe][Nspe][Nlys][Nspe]P[Nlys][Nspe][Nspe]-NH2) ? >72.9 µM

Tell me reported MIC Serratia marcescens ATCC 13880 for C[C@@H](c1ccccc1)N(CC(N)=O)C(=O)CN(C(=O)CN(CCCCN)C(=O)CN(C(=O)CN(C(=O)CN(CCCCN)C(=O)[C@@H]1CCCN1C(=O)CN(C(=O)CN(CCCCN)C(=O)CN(C(=O)CN(C(=O)CNCCCCN)[C@@H](C)c1ccccc1)[C@@H](C)c1ccccc1)[C@@H](C)c1ccccc1)[C@@H](C)c1ccccc1)[C@@H](C)c1ccccc1)[C@@H](C)c1ccccc1 [1-Pro6] (H-[Nlys][Nspe][Nspe][Nlys][Nspe]P[Nlys][Nspe][Nspe][Nlys][Nspe][Nspe]-NH2) , tested with Serratia marcescens ATCC 13880. >72.9 µM

Query MIC Serratia marcescens ATCC 13880 on Serratia marcescens ATCC 13880 for CC(C)[C@H](C)N(CC(=O)N(CC(=O)N(CCCCN)CC(=O)N(CC(=O)N(CC(=O)N(CCCCN)CC(=O)N(CC(=O)N(CC(=O)N(CCCCN)CC(=O)N(CC(=O)N(CC(N)=O)[C@@H](C)c1ccccc1)[C@@H](C)C(C)C)[C@@H](C)c1ccccc1)[C@@H](C)C(C)C)[C@@H](C)c1ccccc1)[C@@H](C)C(C)C)[C@@H](C)c1ccccc1)C(=O)CNCCCCN [1-Nsdp2,5,8,11, H-(Nlys-Nsdp-Nspe)4-NH2] (H-[Nlys][X1][Nspe][Nlys][X1][Nspe][Nlys][X1][Nspe][Nlys][X1][Nspe]-NH2) >76.0 µM
